Tested on: IL-2-FL/Gaussia Luciferase
Test: Dox Induced IL2-FL-Gluc Assay
Format: cell-based
Conditions: 24 hr, doxycycline-induced, 293FRT/TO cells; read-out: 24 hr Dox Inducible IL2FLGIuc 293FRT/TO: Mean IC50
Note to self: IC50 under 1 µM means TRUE, ties and anything higher get FALSE.

[
  {
    "COMPOUND": "O=C(Nc1nc([C@H]2CC(F)(F)CN2c2ccccc2)cs1)c1cccn1Cc1ccncc1 [Compound A339]",
    "CAT": "TRUE"
  },
  {
    "COMPOUND": "O=C(Nc1nc([C@@H]2CCCN2c2ccccc2)cs1)c1cccn1Cc1ccncc1Cl [Compound A318]",
    "CAT": "TRUE"
  },
  {
    "COMPOUND": "O=C(Nc1nc([C@@H]2CCCCN2c2ccccc2)cs1)c1cccn1Cc1ccncc1 [Compound A332]",
    "CAT": "TRUE"
  },
  {
    "COMPOUND": "CC(C)O[C@@H]1CC(c2csc(NC(=O)c3cccn3Cc3ccncc3)n2)N(c2ccccc2)C1 (some centres unmarked) [Compound A346]",
    "CAT": "TRUE"
  },
  {
    "COMPOUND": "Cc1ccc(S(=O)(=O)CCOC(C)(C)c2csc(NC(=O)c3cccn3Cc3ccncc3)n2)cc1 [Compound B3]",
    "CAT": "FALSE"
  },
  {
    "COMPOUND": "O=C(Nc1nc([C@H]2CC[C@H]2c2ccccc2)cs1)c1cccn1Cc1ccncc1 [Compound A324]",
    "CAT": "TRUE"
  },
  {
    "COMPOUND": "O=C(Nc1nc(/C=C/c2ncc(F)cc2F)cs1)c1cccn1Cc1ccncc1 [Compound A358]",
    "CAT": "TRUE"
  },
  {
    "COMPOUND": "COc1ccc(O[C@H]2C[C@H](c3csc(NC(=O)c4cccn4Cc4ccncc4)n3)C2)nc1 [Compound A314]",
    "CAT": "TRUE"
  },
  {
    "COMPOUND": "CC(C)(C)[C@H]1C[C@@H]1NC(=O)c1cccn1Cc1ccncc1 [Compound B23]",
    "CAT": "FALSE"
  },
  {
    "COMPOUND": "Cc1cc(NC(=O)c2cccn2Cc2ccncc2)no1 [Compound B8]",
    "CAT": "FALSE"
  },
  {
    "COMPOUND": "CC(=O)NCCc1nc(NC(=O)c2cccn2Cc2ccncc2)sc1C [Compound B22]",
    "CAT": "FALSE"
  },
  {
    "COMPOUND": "CCc1nc(NC(=O)c2cccn2Cc2ccccc2Cl)sc1C [Compound B7]",
    "CAT": "FALSE"
  },
  {
    "COMPOUND": "O=C(Nc1nc([C@@H]2CCCN2C(=O)c2ccccc2)cs1)c1cccn1Cc1ccncc1 [Compound A313]",
    "CAT": "FALSE"
  },
  {
    "COMPOUND": "O=C(Nc1nc(/C=C/c2ncc(OC3CCCC3)cc2F)cs1)c1cccn1Cc1ccncc1 [Compound A295]",
    "CAT": "TRUE"
  },
  {
    "COMPOUND": "Cc1ccc(/C=C/c2csc(NC(=O)c3cccn3Cc3ccncc3)n2)nc1 [Compound A357]",
    "CAT": "FALSE"
  },
  {
    "COMPOUND": "N#Cc1ccc(/C=C/c2csc(NC(=O)c3cccn3Cc3ccncc3)n2)nc1 [Compound A341]",
    "CAT": "FALSE"
  },
  {
    "COMPOUND": "O=C(Nc1nc([C@H]2C[C@@H](c3ccccn3)C2)cs1)c1cccn1Cc1ccncc1 [Compound A349]",
    "CAT": "FALSE"
  },
  {
    "COMPOUND": "O=C(Nc1nc([C@H]2CCC(=O)N2c2ccccc2)cs1)c1cccn1Cc1ccncc1 [Compound A319]",
    "CAT": "FALSE"
  },
  {
    "COMPOUND": "O=C(Nc1nc([C@H]2CCC[C@H]2c2ccccc2)cs1)c1cccn1Cc1ccncc1 [Compound A301]",
    "CAT": "TRUE"
  },
  {
    "COMPOUND": "C=Cc1csc(NC(=O)c2cccn2Cc2ccncc2)n1 [Compound B2]",
    "CAT": "FALSE"
  },
  {
    "COMPOUND": "Cc1sc(NC(=O)c2cccn2Cc2ccncc2)nc1/C=C/c1ccccc1 [Compound A297]",
    "CAT": "TRUE"
  },
  {
    "COMPOUND": "O=C(Nc1nc(/C=C/c2ncccn2)cs1)c1cccn1Cc1ccncc1 [Compound A307]",
    "CAT": "FALSE"
  },
  {
    "COMPOUND": "CCc1nc(NC(=O)[C@@H]2CCCN2Cc2ccncc2)sc1C [Compound B26]",
    "CAT": "FALSE"
  },
  {
    "COMPOUND": "O=C(Nc1nc([C@H]2[C@H](O)CCN2c2ccccc2)cs1)c1cccn1Cc1ccncc1 [Compound A351]",
    "CAT": "TRUE"
  },
  {
    "COMPOUND": "CC(C)c1coc(NC(=O)c2cccn2Cc2ccncc2)n1 [Compound B5]",
    "CAT": "FALSE"
  },
  {
    "COMPOUND": "CO[C@@H]1C[C@H](c2csc(NC(=O)c3cccn3Cc3ccncc3)n2)N(c2ccccc2)C1 [Compound A325]",
    "CAT": "TRUE"
  },
  {
    "COMPOUND": "CCc1cc(N(C)C(=O)c2cccn2Cc2ccncc2)ccc1C [Compound B25]",
    "CAT": "FALSE"
  },
  {
    "COMPOUND": "C[C@]1(c2csc(NC(=O)c3cccn3Cc3ccncc3)n2)CCCN1c1ccccc1 [Compound A338]",
    "CAT": "TRUE"
  },
  {
    "COMPOUND": "CNC(=O)c1cnc(NC(=O)c2cccn2Cc2ccncc2)s1 [Compound B16]",
    "CAT": "FALSE"
  },
  {
    "COMPOUND": "CC(C)OC(C)(C)c1csc(NC(=O)Cc2ccc(Cc3ccncc3)[nH]2)n1 [Compound B12]",
    "CAT": "FALSE"
  }
]

###

Tested on: HER3-ss+4aa/Gaussia Luciferase
Assay: Dox-Induced Her3-ss-Gluc Assay
Assay type: cell-based
Conditions: 24 hr doxycycline induction, 293FRT/TO cells, Gaussia luciferase signal; read-out: 24 hr Dox Inducible Her3(ss + 4)Gluc 293FRT/TO: Mean IC50
READOUT_TYPE: log10 IC50 (log10 of the value in nM)

[
  {
    "COMPOUND": "O=C(Nc1nc([C@H]2CCN(Cc3ccccc3)C2)cs1)c1cccn1Cc1ccncc1",
    "QUANTITATIVE_RESULT": 3.62
  },
  {
    "COMPOUND": "O=C(Nc1nc(C2CCc3ccccc3O2)cs1)c1cccn1CCCc1ccncc1 (centres unmarked)",
    "QUANTITATIVE_RESULT": 3.38
  },
  {
    "COMPOUND": "O=C(Nc1nc([C@@H]2CC[C@@H](c3ccccc3)C2)cs1)c1cccn1Cc1ccncc1 (stereo in doubt)",
    "QUANTITATIVE_RESULT": 2.67
  },
  {
    "COMPOUND": "CC(C)(OCC(F)(F)F)c1csc(NC(=O)c2cccn2Cc2ccncc2)n1",
    "QUANTITATIVE_RESULT": 2.50
  },
  {
    "COMPOUND": "O=C(Nc1nc(/C=C/c2ccc(F)cc2)cs1)c1cccn1Cc1ccncc1",
    "QUANTITATIVE_RESULT": 2.52
  }
]

###

System: IL-2-FL/Gaussia Luciferase
Test: Dox Induced IL2-FL-Gluc Assay
Assay type: cell-based
Conditions: 24 hr doxycycline induction, 293FRT/TO cells, Gaussia luciferase signal; read-out: 24 hr Dox Inducible IL2FLGIuc 293FRT/TO: Mean IC50
One threshold, 4 µM, splits the recorded IC50 values: lower ones are YES, equal or higher ones are NO.

[
  {
    "SMILES_NOTATION": "O=C(Nc1nc(Cc2ccccc2)cs1)c1cccn1Cc1ccncc1",
    "CAT": "YES"
  },
  {
    "SMILES_NOTATION": "CC(C)OC(C)(C)c1csc(NC(=O)c2cccn2Cc2ccn(C)c(=O)c2)n1",
    "CAT": "NO"
  },
  {
    "SMILES_NOTATION": "CC(C)OC(C)(C)c1csc(NC(=O)c2cccn2Cc2c(F)cncc2F)n1",
    "CAT": "YES"
  },
  {
    "SMILES_NOTATION": "CC(C)OCc1csc(NC(=O)c2cccn2Cc2ccncc2)n1",
    "CAT": "YES"
  },
  {
    "SMILES_NOTATION": "CC(C)OC(C)(C)c1csc(NC(=O)c2cccn2[C@H](C)c2ccncc2)n1",
    "CAT": "YES"
  },
  {
    "SMILES_NOTATION": "O=C(Nc1ncc(Cc2ccccc2)s1)c1cccn1Cc1ccncc1",
    "CAT": "NO"
  },
  {
    "SMILES_NOTATION": "Cc1csc(NC(=O)c2cccn2Cc2ccncc2)n1",
    "CAT": "NO"
  },
  {
    "SMILES_NOTATION": "CC(C)(OCC(F)(F)F)c1csc(NC(=O)c2cccn2Cc2ccncc2)n1",
    "CAT": "YES"
  },
  {
    "SMILES_NOTATION": "CC(C)OC(C)(C)c1csc(NC(=O)c2cccn2Cc2ccc(C#N)cc2)n1",
    "CAT": "YES"
  }
]
